Where do these numbers come from? They come from paper PMC5438088.

experimental-system: hcSHMT (Homo sapiens, UniProt P34896)
Sequence (P34896 1-483): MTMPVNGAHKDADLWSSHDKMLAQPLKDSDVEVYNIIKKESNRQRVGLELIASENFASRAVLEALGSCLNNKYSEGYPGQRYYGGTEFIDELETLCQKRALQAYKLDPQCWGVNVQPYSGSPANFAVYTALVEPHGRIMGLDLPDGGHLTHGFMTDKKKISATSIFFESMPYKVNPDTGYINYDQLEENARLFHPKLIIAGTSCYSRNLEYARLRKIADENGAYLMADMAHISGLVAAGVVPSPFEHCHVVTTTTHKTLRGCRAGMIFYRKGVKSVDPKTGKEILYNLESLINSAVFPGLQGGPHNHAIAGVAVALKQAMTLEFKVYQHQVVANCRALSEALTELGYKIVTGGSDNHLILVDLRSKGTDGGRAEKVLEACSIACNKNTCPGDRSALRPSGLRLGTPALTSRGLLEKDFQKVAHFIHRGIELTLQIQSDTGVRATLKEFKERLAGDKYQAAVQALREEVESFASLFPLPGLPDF
assay-comment: Isothermal titration calorimetry
Format: binding
applied-conditions: Kd, ITC, 25°C, 10 mM glycine
outcome-measure: Kd (nM)
Record the value in nM, omitting the unit from your answer.

GET /value?item= Nc1nc2c(c(=O)[nH]1)N(C=O)C(CNc1ccc(C(=O)N[C@@H](CCC(=O)O)C(=O)O)cc1)CN2 (stereo partly shown) [Leucovorin, 5-formyltetrahydrofolate] &field=Kd returns 1360
